Test system: Lp-PLA2 in human plasma (Homo sapiens)
Construct: from tissue; host or cells: pooled human plasma
Sequence (Q13093 22-441): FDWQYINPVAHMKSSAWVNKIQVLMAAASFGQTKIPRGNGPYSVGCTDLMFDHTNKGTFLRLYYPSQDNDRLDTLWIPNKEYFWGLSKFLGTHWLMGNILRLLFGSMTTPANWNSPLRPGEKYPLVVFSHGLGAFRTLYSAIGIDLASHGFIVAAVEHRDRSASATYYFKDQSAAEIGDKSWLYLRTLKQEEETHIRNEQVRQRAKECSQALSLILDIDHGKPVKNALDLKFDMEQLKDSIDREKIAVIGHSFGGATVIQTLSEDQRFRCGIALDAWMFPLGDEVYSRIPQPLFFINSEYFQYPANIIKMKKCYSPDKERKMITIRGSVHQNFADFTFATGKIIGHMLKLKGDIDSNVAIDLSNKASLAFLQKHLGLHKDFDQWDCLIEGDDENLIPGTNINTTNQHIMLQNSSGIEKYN
Assay details: (3a) Lp-PLA2 human plasma Thio-PAF assay
Format: biochemical
Recorded conditions: (3a) Thio-PAF assay, pooled human plasma; Examples 1-265 and 413-430 were tested here; read-out: pIC50 in the Lp-PLA2 human plasma assay (converted)
Reported metric: IC50

O=c1nc(OCc2ccc(Oc3cncc(C(F)(F)F)c3)c(F)c2)cc2n1C[C@@H]1CCCCN21 :: ≤ 0.1 µM
O=c1nc(OCc2cc(F)c(F)cc2F)cc2n1C[C@@H]1CCOCN21 :: ≤ 10 µM
O=c1nc(OCc2ccc(F)c(F)c2)cc2n1CC1CCCCN21 (stereo not shown) :: ≤ 0.1 µM

Kindly consider the entry below.
### Prompt Quick one: IC50 for N#Cc1cc(COc2cc3n(c(=O)n2)CC2CCCCN32)ccc1Oc1ccc(Cl)c(F)c1 (stereo not shown) ?
### Response ≤ 0.1 µM
